Reference source: ChEMBL document CHEMBL4152297

Assay: Modulation of basal activity of HCMV US28 expressed in tetracyclin-induced HEK293 cells assessed as change in inositol phosphate accumulation using [3H]-myo-inositol by scintillation proximity assay
Format: cell-based
Settings: Human betaherpesvirus 5, HEK293; read-out: pEC50 (converted)
attribute_measured: EC50

// worked examples, EC50 included
> print(dat)
                            chemical.string  attribute.measured   value.reported
1  O=C(CN1CCN(Cc2nc3ccccc3n2Cc2ccccc2)CC1)Nc1ccccc1F                EC50            10 µM
2  Cc1nc2ccccc2n1CC1CCN(CC(=O)Nc2cc(C(F)(F)F)ccc2Cl)CC1                EC50         0.316 µM
3  O=C(CN1CCN(Cc2nc(-c3ccc(F)cc3)no2)CC1)Nc1ccc(F)cc1                EC50  3.02 to 3.16 µM
4  Cc1cc2ncn(CC3CCN(CC(=O)Nc4ccccc4C(F)(F)F)CC3)c2cc1C                EC50          79.4 µM

We now examine a further compound.
Inquiry: Name the recorded EC50 for Cc1ccc(NC(=O)CN2CCC(Cn3cnc4ccccc43)CC2)cc1Cl .
Reply text: 0.251 µM
